# tested-target: Histone deacetylase 3/Nuclear receptor corepressor 2 (HDAC3/NCoR2) (Homo sapiens)
# Sequence (O15379 whole entry, the tested form may be a part): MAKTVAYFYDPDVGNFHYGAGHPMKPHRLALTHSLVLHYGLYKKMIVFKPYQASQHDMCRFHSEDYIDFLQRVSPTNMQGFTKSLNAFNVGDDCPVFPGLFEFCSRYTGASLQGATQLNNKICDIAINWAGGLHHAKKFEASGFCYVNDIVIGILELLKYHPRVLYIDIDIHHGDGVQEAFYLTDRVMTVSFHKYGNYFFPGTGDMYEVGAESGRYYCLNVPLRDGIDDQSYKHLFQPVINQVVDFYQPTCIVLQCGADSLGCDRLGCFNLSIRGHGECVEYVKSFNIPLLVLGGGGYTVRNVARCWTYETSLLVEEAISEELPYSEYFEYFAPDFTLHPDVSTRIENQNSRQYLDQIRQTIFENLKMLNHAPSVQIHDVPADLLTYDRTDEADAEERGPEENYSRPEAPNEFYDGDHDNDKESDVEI
# Sequence (Q9Y618 whole entry, further chain, the tested form may be a part): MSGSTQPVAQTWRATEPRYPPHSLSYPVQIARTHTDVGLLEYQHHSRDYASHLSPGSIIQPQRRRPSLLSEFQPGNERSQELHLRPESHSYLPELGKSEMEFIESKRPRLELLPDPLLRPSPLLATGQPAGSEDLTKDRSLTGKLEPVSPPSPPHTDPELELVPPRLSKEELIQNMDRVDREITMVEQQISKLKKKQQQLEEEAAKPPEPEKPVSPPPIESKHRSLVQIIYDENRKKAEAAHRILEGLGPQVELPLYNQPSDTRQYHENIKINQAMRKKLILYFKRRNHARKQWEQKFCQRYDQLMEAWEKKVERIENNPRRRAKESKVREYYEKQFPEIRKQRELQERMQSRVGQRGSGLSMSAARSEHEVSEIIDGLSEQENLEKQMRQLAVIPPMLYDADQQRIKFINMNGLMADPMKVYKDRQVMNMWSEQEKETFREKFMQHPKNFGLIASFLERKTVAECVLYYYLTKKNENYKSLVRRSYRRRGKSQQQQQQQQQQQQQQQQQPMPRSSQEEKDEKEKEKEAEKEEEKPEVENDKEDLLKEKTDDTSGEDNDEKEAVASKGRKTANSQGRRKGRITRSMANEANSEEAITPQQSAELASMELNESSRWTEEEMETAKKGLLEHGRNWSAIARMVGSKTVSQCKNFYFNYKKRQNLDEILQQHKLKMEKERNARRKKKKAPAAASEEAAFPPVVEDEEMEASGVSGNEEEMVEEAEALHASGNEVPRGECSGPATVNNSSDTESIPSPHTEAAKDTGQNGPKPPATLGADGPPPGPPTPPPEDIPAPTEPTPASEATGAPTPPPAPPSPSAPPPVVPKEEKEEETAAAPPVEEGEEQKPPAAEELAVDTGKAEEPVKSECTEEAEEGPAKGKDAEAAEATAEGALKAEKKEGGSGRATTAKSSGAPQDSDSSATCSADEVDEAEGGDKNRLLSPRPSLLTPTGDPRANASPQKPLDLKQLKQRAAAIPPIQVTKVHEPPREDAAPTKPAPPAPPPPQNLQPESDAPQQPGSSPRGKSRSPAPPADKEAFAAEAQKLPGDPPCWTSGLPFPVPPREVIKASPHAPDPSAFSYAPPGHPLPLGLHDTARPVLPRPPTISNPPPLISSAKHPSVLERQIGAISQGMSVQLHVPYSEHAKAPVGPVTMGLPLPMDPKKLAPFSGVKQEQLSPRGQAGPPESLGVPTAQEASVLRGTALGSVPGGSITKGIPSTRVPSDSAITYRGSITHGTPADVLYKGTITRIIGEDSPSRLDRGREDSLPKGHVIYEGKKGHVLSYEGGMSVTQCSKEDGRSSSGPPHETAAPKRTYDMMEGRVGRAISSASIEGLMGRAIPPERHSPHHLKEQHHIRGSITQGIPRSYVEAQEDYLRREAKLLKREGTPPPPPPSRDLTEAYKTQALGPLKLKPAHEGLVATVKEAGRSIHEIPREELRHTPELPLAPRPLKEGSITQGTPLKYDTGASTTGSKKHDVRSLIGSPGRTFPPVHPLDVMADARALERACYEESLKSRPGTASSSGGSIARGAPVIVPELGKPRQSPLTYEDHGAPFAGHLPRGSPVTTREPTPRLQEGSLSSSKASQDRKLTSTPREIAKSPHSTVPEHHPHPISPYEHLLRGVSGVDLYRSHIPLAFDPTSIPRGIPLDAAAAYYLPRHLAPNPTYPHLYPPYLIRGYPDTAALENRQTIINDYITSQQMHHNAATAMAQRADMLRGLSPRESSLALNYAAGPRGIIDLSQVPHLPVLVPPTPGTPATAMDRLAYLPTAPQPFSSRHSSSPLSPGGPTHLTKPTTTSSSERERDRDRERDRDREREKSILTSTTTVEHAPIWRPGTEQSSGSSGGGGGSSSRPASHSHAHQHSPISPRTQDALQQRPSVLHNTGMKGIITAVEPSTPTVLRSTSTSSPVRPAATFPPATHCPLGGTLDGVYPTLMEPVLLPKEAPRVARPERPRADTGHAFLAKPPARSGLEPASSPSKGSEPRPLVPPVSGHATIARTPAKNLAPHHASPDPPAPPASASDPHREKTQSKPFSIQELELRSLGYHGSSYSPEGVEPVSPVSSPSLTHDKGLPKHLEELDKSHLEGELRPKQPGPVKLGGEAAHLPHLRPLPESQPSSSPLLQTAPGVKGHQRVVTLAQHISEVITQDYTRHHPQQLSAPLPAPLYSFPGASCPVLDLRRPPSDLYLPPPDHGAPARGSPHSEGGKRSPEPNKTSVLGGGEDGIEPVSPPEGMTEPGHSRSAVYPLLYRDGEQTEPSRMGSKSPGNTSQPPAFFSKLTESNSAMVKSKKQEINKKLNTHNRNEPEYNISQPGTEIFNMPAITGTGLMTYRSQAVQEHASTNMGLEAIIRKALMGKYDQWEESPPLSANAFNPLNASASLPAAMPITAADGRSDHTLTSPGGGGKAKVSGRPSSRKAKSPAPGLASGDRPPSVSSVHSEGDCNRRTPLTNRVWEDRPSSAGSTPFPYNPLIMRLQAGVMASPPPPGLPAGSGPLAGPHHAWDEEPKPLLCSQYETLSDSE
# experiment: Inhibition of human recombinant C-terminal His-tagged HDAC3 (1 to 428 residues)/N-terminal GST-tagged NCOR2 (395 to 489 residus) expressed in baculovirus infected Sf9 insect cells using fluor de lys SIRT1 as substrate preincubated for 5 mins followed by substrate addition and measured after 30 mins by fluorescence assay
experimental-endpoint: pIC50
Hey, just a heads up that pIC50 is the negative log base 10 of the concentration in molar.

Prompt: Record "O=C(NO)c1ccc(Nc2c3ccccc3nc3ccc(Br)cc23)cc1" : what is its pIC50 with Histone deacetylase 3/Nuclear receptor corepressor 2 (HDAC3/NCoR2) (Homo sapiens)?
Response: 6.48

Field: next molecule
Prompt: Record "O=C(NO)c1ccc(Nc2c3ccccc3nc3ccccc23)cc1" : what is its pIC50 with Histone deacetylase 3/Nuclear receptor corepressor 2 (HDAC3/NCoR2) (Homo sapiens)?
Response: 5.91
